Where do these numbers come from? They come from paper PMC11188489.

Test: Pharmacokinetics of Tac in rats alone or co-administered with deoxyschizandrin or Wuzhi capsule (UHPLC-MS/MS of plasma)
Type: in vivo, SD rats
Details: male, SD, rat, plasma, 1 mg/kg, NG2205: 1.0 mg/kg of Tac plus 150 mg/kg deoxyschizandrin, rat plasma
readout-kind: AUC(0-inf)
Provide a numeric answer, followed by its unit.

Form field: reported AUC(0-inf) of C=CC[C@@H]1/C=C(\C)C[C@H](C)C[C@H](OC)[C@H]2O[C@@](O)(C(=O)C(=O)N3CCCC[C@H]3C(=O)O[C@H](/C(C)=C/[C@@H]3CC[C@@H](O)[C@H](OC)C3)[C@H](C)[C@@H](O)CC1=O)[C@H](C)C[C@@H]2OC
331 ng·h/mL

----------
Test: Pharmacokinetics of deoxyschizandrin in rats after single and multiple administrations (UHPLC-MS/MS of plasma)
Type: in vivo, SD rats
Details: male, SD, rat, plasma, oral, 150 mg/kg; NG2202: after 12 days of continuous administration of 150 mg/kg deoxyschizandrin, rat plasma
readout-kind: AUC(0-t) (ng·h/mL)
One number for each entry, in ng·h/mL.

Using the record for COc1cc2c(c(OC)c1OC)-c1c(cc(OC)c(OC)c1OC)C[C@H](C)[C@H](C)C2 [deoxyschizandrin] , report its AUC(0-t).
1810

----------
Test: Pharmacokinetics of deoxyschizandrin in rats after single and multiple administrations (UHPLC-MS/MS of plasma)
Format: in vivo, SD rats
Settings: male, SD, rat, plasma, po, 150 mg/kg, NG2201: 150 mg/kg deoxyschizandrin single, rat plasma, D1-D2
readout-kind: AUC(0-t)

Return reported AUC(0-t); argument: COc1cc2c(c(OC)c1OC)-c1c(cc(OC)c(OC)c1OC)C[C@H](C)[C@H](C)C2
786 ng·h/mL

----------
Experiment: Pharmacokinetics of deoxyschizandrin in rats after single and multiple administrations (UHPLC-MS/MS of plasma)
Assay type: in vivo, SD rats
Conditions: male, SD, rat, plasma, po, 150 mg/kg, NG2201: 150 mg/kg deoxyschizandrin single, rat plasma, D1-D2
readout-kind: half-life (h)
Give bare numbers, in h.

Any idea what its half-life is? The compound is COc1cc2c(c(OC)c1OC)-c1c(cc(OC)c(OC)c1OC)C[C@H](C)[C@H](C)C2 [deoxyschizandrin]
4.48

----------
Assay: Pharmacokinetics of Tac in rats alone or co-administered with deoxyschizandrin or Wuzhi capsule (UHPLC-MS/MS of plasma)
Type: in vivo, SD rats
Conditions: male, SD, rat, plasma, 1 mg/kg, NG2203: 1.0 mg/kg of Tac alone, rat plasma
readout-kind: Cmax (µg/mL)
Give bare numbers, in µg/mL.

Entry C=CC[C@@H]1/C=C(\C)C[C@H](C)C[C@H](OC)[C@H]2O[C@@](O)(C(=O)C(=O)N3CCCC[C@H]3C(=O)O[C@H](/C(C)=C/[C@@H]3CC[C@@H](O)[C@H](OC)C3)[C@H](C)[C@@H](O)CC1=O)[C@H](C)C[C@@H]2OC : reported Cmax = ?
0.0143

----------
Test: Pharmacokinetics of Tac in rats alone or co-administered with deoxyschizandrin or Wuzhi capsule (UHPLC-MS/MS of plasma)
Format: in vivo, SD rats
Details: male, SD, rat, plasma, 1 mg/kg, NG2203: 1.0 mg/kg of Tac alone, rat plasma
readout-kind: Tmax

# get_value(readout='Tmax', item= C=CC[C@@H]1/C=C(\C)C[C@H](C)C[C@H](OC)[C@H]2O[C@@](O)(C(=O)C(=O)N3CCCC[C@H]3C(=O)O[C@H](/C(C)=C/[C@@H]3CC[C@@H](O)[C@H](OC)C3)[C@H](C)[C@@H](O)CC1=O)[C@H](C)C[C@@H]2OC [Tac, Tacrolimus] )
1.33 h

----------
Assay: Pharmacokinetics of deoxyschizandrin in rats after single and multiple administrations (UHPLC-MS/MS of plasma)
Assay type: in vivo, SD rats
Conditions: male, SD, rat, plasma, po, 150 mg/kg, NG2201: 150 mg/kg deoxyschizandrin single, rat plasma, D1-D2
readout-kind: Tmax (min)
Give bare numbers, in min.

Could you tell me which Tmax is on file for COc1cc2c(c(OC)c1OC)-c1c(cc(OC)c(OC)c1OC)C[C@H](C)[C@H](C)C2 [deoxyschizandrin] ?
55.2

----------
Test: Pharmacokinetics of Tac in rats alone or co-administered with deoxyschizandrin or Wuzhi capsule (UHPLC-MS/MS of plasma)
Format: in vivo, SD rats
Details: male, SD, rat, plasma; 1.0 mg/kg of Tac plus Wuzhi capsule (equivalent to 150 mg/kg deoxyschizandrin), rat plasma
Description: The mobile phase A was acetonitrile, and mobile phase B was 0.1% formic acid in water, and the initial mobile phase of gradient elution program was consisted of 60% phase A and 40% phase B. The sample injection volume was set at 10 μL. Gradient elution program was supplied in Supplementary Table S1. The mass spectrometry detection was achieved on an Agilent 6460A mass spectrometer with ESI source. […] All analytes were detected in positive ionization mode. […]
readout-kind: AUC(0-inf) (ng·h/mL)
One number for each entry, in ng·h/mL.

Entry under review: C=CC[C@@H]1/C=C(\C)C[C@H](C)C[C@H](OC)[C@H]2O[C@@](O)(C(=O)C(=O)N3CCCC[C@H]3C(=O)O[C@H](/C(C)=C/[C@@H]3CC[C@@H](O)[C@H](OC)C3)[C@H](C)[C@@H](O)CC1=O)[C@H](C)C[C@@H]2OC [Tac, Tacrolimus] . Reported AUC(0-inf)?
388

----------
Assay: Pharmacokinetics of Tac in rats alone or co-administered with deoxyschizandrin or Wuzhi capsule (UHPLC-MS/MS of plasma)
Format: in vivo, SD rats
Settings: male, SD, rat, plasma, 1 mg/kg, NG2207: 1.0 mg/kg of Tac plus Wuzhi capsule (equivalent to 150 mg/kg deoxyschizandrin), rat plasma
readout-kind: AUC(0-t) (µg·h/mL)
Give bare numbers, in µg·h/mL.

If you can, please state the reported AUC(0-t) value of C=CC[C@@H]1/C=C(\C)C[C@H](C)C[C@H](OC)[C@H]2O[C@@](O)(C(=O)C(=O)N3CCCC[C@H]3C(=O)O[C@H](/C(C)=C/[C@@H]3CC[C@@H](O)[C@H](OC)C3)[C@H](C)[C@@H](O)CC1=O)[C@H](C)C[C@@H]2OC [Tac, Tacrolimus] .
0.34

----------
Test: Pharmacokinetics of Tac in rats alone or co-administered with deoxyschizandrin or Wuzhi capsule (UHPLC-MS/MS of plasma)
Assay type: in vivo, SD rats
Settings: male, SD, rat, plasma; 1.0 mg/kg of Tac plus Wuzhi capsule (equivalent to 150 mg/kg deoxyschizandrin), rat plasma
readout-kind: AUC(0-t) (ng·h/mL)
Give bare numbers, in ng·h/mL.

Name the reported AUC(0-t) value associated with the compound C=CC[C@@H]1/C=C(\C)C[C@H](C)C[C@H](OC)[C@H]2O[C@@](O)(C(=O)C(=O)N3CCCC[C@H]3C(=O)O[C@H](/C(C)=C/[C@@H]3CC[C@@H](O)[C@H](OC)C3)[C@H](C)[C@@H](O)CC1=O)[C@H](C)C[C@@H]2OC [Tac, Tacrolimus]
340
